Data origin: ChEMBL document CHEMBL1201862

Tested on: M14
protocol notes: NCI tumour cell line growth inhibition, 48 h
The source made the active and inactive calls. No stated cut-off is given here; in the data, active = GI50 up to about 1.1 µM and inactive = higher.
Mark one answer only. Choices: class 1 (active), class 0 (inactive)

Use the examples below as a reference point.
[
  {
    "compound": "CC1(C)C2CC(=O)C1(C)C(O)C2Br (stereo unspecified)",
    "test target": "M14",
    "discrete label": "class 0"
  },
  {
    "compound": "N#COc1ccc(Oc2ccccc2)cc1",
    "test target": "M14",
    "discrete label": "class 0"
  },
  {
    "compound": "Cc1cc2c(cc1Cl)SC(NN(C)C)=NS2(=O)=O",
    "test target": "M14",
    "discrete label": "class 0"
  },
  {
    "compound": "O=C(O)c1ccc2c(c1C(=O)O)C(=O)OC2(c1ccc(O)cc1)c1ccc(O)cc1",
    "test target": "M14",
    "discrete label": "class 0"
  },
  {
    "compound": "COC(=O)C(CCC1(C)OCCO1)C(C)=O (stereo unspecified)",
    "test target": "M14",
    "discrete label": "class 0"
  }
]

Record request — test call for COC(=O)CC[C@@H](C)[C@H]1CC[C@H]2[C@@H]3CC[C@@H]4C[C@H](O)CC[C@]4(C)[C@H]3CC[C@]12C class 0

What do you get for Cc1nc(-c2ccc([N+](=O)[O-])cc2)cn2c1nc1ccccc12 ? class 0

What do you get for CCCCCCC(C)c1ccc2c(c1)C(=O)c1nc3ccncc3c(=O)n1-2 (stereo unspecified) ? class 0

What do you get for COc1ccc(C2CCC(Cl)(OC)CC2C=O)cc1 (stereo unspecified) ? class 0

---

Tested on: Hs-578T
protocol notes: NCI tumour cell line growth inhibition, 48 h
Active and inactive are the calls of the source. No stated cut-off is given here; in the data, active = GI50 up to about 1.1 µM and inactive = higher.
Known GI50 of a selection of compounds

Recorded results for 5 compounds are shown here.
[
  {
    "compound": "COC(=O)/C(C#N)=C(\\Nc1ccccc1)N1CCCCC1",
    "test target": "Hs-578T",
    "GI50": "> 100 µM (inactive)"
  },
  {
    "compound": "C=C[C@H]1CN2CCc3c([nH]c4c([C@H]5CCCN5C)c(O)ccc34)[C@@H]2C[C@@H]1C[C@H]1c2[nH]c3ccccc3c2CCN1C [STRYCHNOPENTAMINE]",
    "test target": "Hs-578T",
    "GI50": "1.78 µM (inactive)"
  },
  {
    "compound": "COC(=O)CN1CCN(c2cccc3c2CCCC3)CC1",
    "test target": "Hs-578T",
    "GI50": "> 100 µM (inactive)"
  },
  {
    "compound": "CCOC(=O)C(C)c1nc2cc(F)c(N3CCOCC3)cc2[nH]c1=O (centres undefined)",
    "test target": "Hs-578T",
    "GI50": "> 100 µM (inactive)"
  },
  {
    "compound": "NC1=C(N2CCOCC2)C(=O)NC2=N/C(=C\\c3ccccc3O)C(=O)N21",
    "test target": "Hs-578T",
    "GI50": "> 100 µM (inactive)"
  }
]

What value of GI50 has been recorded for this entry: N#CC12C(=O)NC(=O)C1(C#N)C1C=CC2CC1 (centres undefined) > 100 µM (inactive)

What do you get for CCCCCCCCCCCC[C@@H](O)[C@H]1CC[C@H]([C@H]2CC[C@H]([C@H](O)CC[C@H](O)CCCCCCCC3=C[C@H](C)OC3=O)O2)O1 ? 2.18 µM (inactive)

What do you get for CSc1cc(Cl)c(C(=O)Nc2ccccc2)cc1S(=O)(=O)n1ccnc1O ? > 100 µM (inactive)

What do you get for CC(=O)c1c2c(cc3c1CC1(Cc4cc5c(cc4C1)CCC5)C3)CCC2 ? > 100 µM (inactive)

---

Known GI50 of a selection of molecules
System: RXF 393
protocol notes: NCI tumour cell line growth inhibition, 48 h
Calls of active or inactive are those of the source. No stated cut-off is given here; in the data, active = GI50 up to about 1.1 µM and inactive = higher.

Recorded results for 3 molecules are shown here.
[
  {
    "molecule": "Oc1cccc(Nc2cc(O)nc(O)n2)c1",
    "assay value": "> 100 µM (inactive)"
  },
  {
    "molecule": "Cc1csc2nc(-c3ccc(Cl)c([N+](=O)[O-])c3)c(/C=N/NC(=N)N)n12",
    "assay value": "1.63 µM (inactive)"
  },
  {
    "molecule": "Cc1cc2c(C(C)C)c(O)c(O)c(/C=N/c3cc(C(F)(F)F)ccc3Cl)c2c(O)c1-c1c(C)cc2c(C(C)C)c(O)c(O)c(/C=N/c3cc(C(F)(F)F)ccc3Cl)c2c1O",
    "assay value": "28.8 µM (inactive)"
  }
]

Attention now turns to another entry.
What value of GI50 has been recorded for this entry: O=c1[nH]c(=O)n(C2CC(O)C(CO)O2)cc1/C=C/Br (centres undefined) > 100 µM (inactive)

---

System: SN12C
protocol notes: NCI tumour cell line growth inhibition, 48 h
Activity calls are given as the source filed them. Rule as the data show it: active = GI50 up to about 1.1 µM and inactive = higher.
Mark one answer only. Choices: active, inactive

[
  {
    "compound": "CC(C)(c1cn(Cc2ccccc2)c2ccccc12)c1cn(Cc2ccccc2)c2ccccc12",
    "discrete label": "inactive"
  }
]

Record request — test call for Cc1nc(-c2ccc([N+](=O)[O-])cc2)cn2c1nc1ccccc12 inactive

What do you get for C[n+]1ccccc1/C=C/c1ccc2c(c1)OCO2 ? inactive

---

Test system: SW-620
protocol notes: NCI tumour cell line growth inhibition, 48 h
Activity calls are given as the source filed them. Rule as the data show it: active = GI50 up to about 1.1 µM and inactive = higher.
Mark one answer only. Choices: active, inactive

Use the examples below as a reference point.
[
  {
    "molecule": "O=C1c2ccccc2C(=O)c2c(NCC3CO3)cccc21 (configuration not stated)",
    "discrete label": "inactive"
  },
  {
    "molecule": "O=C(c1ccccc1)c1ccc2c(c1)nc1n2C(c2c(Cl)cccc2Cl)SC1 (configuration not stated)",
    "discrete label": "inactive"
  },
  {
    "molecule": "Nc1ccccc1CCN1CCN(CCCc2ccccc2)CC1",
    "discrete label": "inactive"
  },
  {
    "molecule": "CCOC(=O)/C(C#N)=C/Nc1c(C)n(C)n(-c2ccccc2)c1=O",
    "discrete label": "inactive"
  }
]

Record request — test call for COC(=O)/C=C1/CCC(C)(C(=O)NS(=O)(=O)c2ccc(C)cc2)C1(C)C (configuration not stated) inactive

What do you get for C[C@@H]1C[C@@H](O)[C@]2(O)O[C@@H]3C[C@@]4(C=O)[C@@H](CC[C@@H]5[C@@H]4CC[C@]4(C)[C@@H](C6=CC(=O)OC6)CC[C@]54O)C[C@H]3O[C@@H]2O1 ? active

What do you get for O=C1C(O)=C(CCCCCCCCC2CCCCC2)C(=O)c2ccccc21 ? inactive

What do you get for COC(=O)/C(C#N)=C(\Nc1ccccc1)N1CCCCC1 ? inactive

What do you get for O=c1ncccn1C1C=C(CO)C(O)C1O (configuration not stated) ? inactive

---

Test system: UACC-257
protocol notes: NCI tumour cell line growth inhibition, 48 h
Activity calls are given as the source filed them. Rule as the data show it: active = GI50 up to about 1.1 µM and inactive = higher.
result type: GI50

[
  {
    "compound": "CCOC(=O)C12C3CCC1C2C(=O)C3 (configuration not stated)",
    "result type": "GI50",
    "assay value": "> 100 µM (inactive)"
  },
  {
    "compound": "COC(=O)CC1C(COC(C)=O)OC(n2cc(C)c(=O)[nH]c2=O)C1OC(C)=O (configuration not stated)",
    "result type": "GI50",
    "assay value": "> 100 µM (inactive)"
  },
  {
    "compound": "Oc1cc(-c2ccccc2)nc2cc3c(cc12)OCO3",
    "result type": "GI50",
    "assay value": "44.5 µM (inactive)"
  },
  {
    "compound": "Cc1nc(Cc2n[nH]c(C)n2)n[nH]1",
    "result type": "GI50",
    "assay value": "> 100 µM (inactive)"
  }
]

What value of GI50 has been recorded for this entry: CC1=C(C(=O)NC(C)(C)C)CC(C(=O)NC(C)(C)C)C(C)N1 (configuration not stated) > 100 µM (inactive)

What do you get for CC1C[C@H](OC(N)=O)C(C)CC1=O (some centres not stated) ? > 100 µM (inactive)

What do you get for O=C1C(O)=C(CCCCCCCCC2CCCCC2)C(=O)c2ccccc21 ? 6.28 µM (inactive)

What do you get for Cc1cc(N)ccc1C=O ? > 100 µM (inactive)

What do you get for CCCCCCCCCCCC(=O)C1=C(O)CC(O)CC1=O (configuration not stated) ? > 100 µM (inactive)

What do you get for Cc1ccc(S(=O)(=O)C(CC(=O)N2CCCC2)C(=O)c2ccccc2)cc1 (configuration not stated) ? > 100 µM (inactive)

What do you get for COc1ccc(OC)c2c1C1CCC(=O)N1CN2C(C)=O (configuration not stated) ? > 100 µM (inactive)

What do you get for CC(=O)OCCn1c(Cc2ccc(Cl)cc2)nn(C(C)=O)c1=O ? > 100 µM (inactive)

What do you get for CSc1c(C)c(C)nn1-c1ccccc1 ? > 100 µM (inactive)

What do you get for O=C(Nc1cccc(Cl)c1)Nn1cnnc1 ? > 100 µM (inactive)

What do you get for CC1=NN(C(=O)c2ccc(Cl)cc2)C(=O)/C1=C/c1ccco1 ? > 100 µM (inactive)

What do you get for Cc1ccc(NC(=O)C2C(=O)C(=O)N(c3ccc(C)cc3)C2=O)cc1 (configuration not stated) ? > 100 µM (inactive)

What do you get for O=C1[C@H](c2ccccc2)C2c3ccccc3CCN12 (some centres not stated) ? > 10 µM (inactive)

What do you get for COC(=O)C1C(=O)C=CN([C@H](C)c2ccccc2)[C@@H]1Cc1ccc(OC)c(OCc2ccccc2)c1I (some centres not stated) ? 18.2 µM (inactive)

What do you get for NS(=O)(=O)c1ccc(Nc2c3ccccc3nc3c(C(=O)NCCO)cccc23)cc1 ? 0.17 µM (active)

What do you get for O=c1ncccn1C1C=C(CO)C(O)C1O (configuration not stated) ? > 50 µM (inactive)

What do you get for O=C1/C(=C/c2ccccc2[N+](=O)[O-])N=C(c2ccccc2)N1c1nc2ccccc2s1 ? 65 µM (inactive)

What do you get for COC(=O)Cc1ccc2c(cnn2-c2ccccc2)c1OC ? > 10 µM (inactive)
